- EXPERIMENTAL TARGET: T1, Class I HLA molecule B*1501 in recombinant form (limits assumed)
- T1 MHC heavy: not shown
- ASSAY DETAILS: iTopia ELISA-like peptide-HLA binding
QUANTITY KIND: Bond results (%)
Quick note: give the figure in %, leave out the unit.

Answered cases to consult:
| BINDER | Bond results (%) |
| --- | --- |
| SYLAWYQQK [VK3-20 peptide No 32 SYLAWYQQK] | 0 |
| TLSCRASQI (also called P20) [VK3-20 peptide No 20 TLSCRASQI] | 1 |
| RLEPEDFAV [VK3-20 peptide No 78 RLEPEDFAV] | 2 |
| YLAWYQQKP [VK3-20 peptide No 33 YLAWYQQKP] | 2 |

Now consider the entry below.
Specify measured Bond results for LIYGASSRA [VK3-20 peptide No 48 LIYGASSRA] .
11
